experiment: melting temperature; fluorescence melt of hairpins on a sequencing array, two-state fit, raised by 9.35 °C to match UV melts; conditions: sodium 0.088 M
Tm vs 50 °C: at or above is Fulfilled, below is Not fulfilled.

GTAAGGCCGAAAGGCTAC (((..(((....))))))    Not fulfilled
GACAGCGAAAGCTCCGTC ((((((....)))..)))    Not fulfilled
GATCTTATCTAAGATC ((((((....))))))    Not fulfilled
GGAAGCCGAAAGGCATCC (((.(((....))).)))    Fulfilled

Query: Does Tm meet or surpass 50 °C for GGCACAGGAAACTGCGCC (((.(((....))).))) ?
Response: Fulfilled

Query: Hello, I need to know if GATTTGGGAAACTAAATC (((((.(....).))))) has measured Tm not below 50 °C. Thanks!
Response: Not fulfilled

Query: Textbook exercise: given the entry GGGCTGCGAAAGCAACCC (((.(((....))).))) , state whether its Tm is greater than or equal to 50 °C.
Response: Fulfilled

Query: Reported Tm reaches at least 50 °C for GGTGGTCGAAAGACAACC (((.(((....))).))) ?
Response: Fulfilled

Query: Dear colleague, could you confirm whether GGTTGAGCGAAAGCTACC (((..(((....)))))) has Tm at or above 50 °C?
Response: Not fulfilled

Query: Answer whether Tm of GCGCTCCCGAAAGGGCGC (((..(((....)))))) is greater than or equal to 50 °C.
Response: Fulfilled

Query: Please tell me: is the sequence GCATGGCGAAAGCTCTGC (((..((....))..))) at or over 50 °C in terms of Tm?
Response: Not fulfilled

Query: Assess whether reported Tm for GCCGTCGAAAGACTAGGC ((((((....)))..))) sits at 50 °C or higher.
Response: Fulfilled

Query: API: above_or_equal(metric=Tm, cutoff=50 °C) for item GAGAGACGAAAGTCCCTC (((.(((....))).)))
Response: Not fulfilled

Query: Please tell me: is the sequence GCAATGCGAAAGCAGGGC ((..(((....)))..)) at or over 50 °C in terms of Tm?
Response: Fulfilled

Query: Form field: Tm at least 50 °C? Entry: GTAGATGGAAACACCTAC ((((.((....)).))))
Response: Not fulfilled

Query: Identify whether the reported Tm of the following sequence is 50 °C or greater: GCGACGCTTCGC ((((....))))
Response: Fulfilled

Query: Evaluate GTTTGTGAAAACAAAC ((((((....)))))) : Tm at minimum 50 °C?
Response: Fulfilled

meta.source: the array DNA melting data of Ke et al. (doi:10.1101/2024.01.08.574731)
